- assay overview: Pharmacokinetic profile of trospium powder formulations administered to rats via insufflation
- Format: in vivo, Sprague-Dawley rats
- test conditions: male, Sprague-Dawley, inhaled or intranasal, 200 ug; rat, intratracheal insufflation, approx. 200 μg trospium, plasma, mean ± standard error; read-out: Cmax
metric name: Cmax (ng/mL)
Output spec: scalar in ng/mL, unitless text.

Name the recorded Cmax of the compound listed here: O=C(O[C@H]1C[C@H]2CC[C@@H](C1)[N+]21CCCC1)C(O)(c1ccccc1)c1ccccc1 [Trospium chloride, reference compound]
71.2
